Recorded measurements of Total Cell Count, one per entry
system: U2OS; test: Multiplex assay against U2OS; format: toxicity, cell-based; conditions: human, 24 h, 10 µM, compound concentration 10 uM, replicate 1
Keep the answer to the number alone.

CCOC(=O)c1c(C)[nH]c2ccc3c(c12)CN1CCc2cc(OC)ccc2C1O3 (stereo not given) ... 143
COc1cc(N2CCN(C)CC2)ccc1Nc1ncc2c(n1)N(C)c1ccccc1C(=O)N2C ... 204
CCn1cc(-c2ccnc3[nH]c(-c4cccc(CN(C)C)c4)cc23)c(-c2ccc(NC(=O)N(C)C)cc2)n1 ... 216
CCOc1cc(C(=O)N2CCC(N3CCN(C)CC3)CC2)ccc1Nc1ncc2c(n1)N(C1CCCC1)c1ccccc1C(=O)N2C ... 215

Would you kindly look at the next entry?
Ask: Endpoint output: Total Cell Count of "C=CCn1c(=O)c2cnc(Nc3ccc(N4CCN(C)CC4)cc3)nc2n1-c1cccc(C(C)(C)O)n1" . Value?
Result: 165

---

tested on: U2OS; assay: Incucyte cell viability with U2OS; type: toxicity, cell-based; settings: human, 18 h, 10 µM, compound concentration 10 uM, replicate number 2, timepoint 18 hours; further: filed as whole numbers so only -1 and 0 and 1 occur
outcome_measure: Growth Rate
Keep it simple and answer with nothing but the number.

// worked examples, Growth Rate included
O=C1NC(c2ccccn2)Sc2ccccc21 (configuration not stated) ... 1
CCCCN(CCCC)C(=O)CN1C[C@H](c2cc(OC)c3c(c2)OCO3)[C@@H](C(=O)O)[C@@H]1CC(C)(C)CCC.Cc1ccc(S(=O)(=O)O)cc1 ... 1
CCC[C@H](Oc1cc(C)c(-n2cc(C(F)(F)F)cn2)c(C)c1)c1ccc(C(=O)NCCC(=O)O)cc1 ... 1
CN(C)[C@H]1CCN(c2cc(-c3ccccc3)nc3ccnn23)C1 [(S)-ZINC-3573] ... 1
Cc1ccc(-c2cnc([C@@]3(O)CC[C@H](C(=O)O)C(C)(C)C3)s2)cc1Nc1cccc(C(F)(F)F)n1 ... 1

Ask: # get_value(readout= Growth Rate, system= U2OS) for "CCCCCCCCCCCCCCCCOC[C@H](COP(=O)([O-])OCC[N+](C)(C)C)OC(C)=O"
Result: 1

Ask: Give recorded Growth Rate with U2OS for the following compound: "COc1cc(-c2cn(C)c(=O)c3cnccc23)c(OC)cc1CN(C)C"
Result: 1

Ask: So what Growth Rate did "c1ccc(Nc2nc3c(s2)CCCc2[nH]ncc2-3)nc1" get with U2OS?
Result: 1

Ask: Report Growth Rate for "COc1cccc2cc(-c3nc([C@H]4CC[C@H](C(=O)O)CC4)n4ncnc(N)c34)[nH]c12" tested on U2OS.
Result: 1

Ask: Request body: readout Growth Rate, system U2OS, query "Cc1cc([C@@H](C)Nc2cccc(-c3cc(C)c(C(=O)N[C@@H](C)C(=O)O)c(C)c3)c2)ccc1Cl" . Return the value.
Result: 1

Ask: Look up Growth Rate with U2OS for this compound: "Cc1cn(-c2cc(NC(=O)c3ccc(C)c(Nc4nccc(-c5cccnc5)n4)c3)cc(C(F)(F)F)c2)cn1"
Result: 1

Ask: Please state recorded Growth Rate (tested on U2OS) of CC(C)OC(=O)C1=CN(C(=O)c2ccc(F)c(F)c2)CC(C)(C)c2c1[nH]c1ccccc21 [TUROFEXORATE ISOPROPYL]
Result: 1

Ask: What is its Growth Rate for U2OS? Entry: "CCCn1c(=O)c2[nH]c(-c3cnn(Cc4cccc(C(F)(F)F)c4)c3)nc2n(CC)c1=O"
Result: 0

Ask: Recall the recorded Growth Rate for "CN1CCN(c2cnc3c(C4CCN(C(=O)c5ccc(OC(F)(F)F)cc5N)CC4)ncnc3c2)CC1" with U2OS and state it.
Result: 1

Ask: Find the measured Growth Rate: item "O=c1ccn([C@@H]2O[C@H](COP(=O)([O-])OP(=O)([O-])O)[C@@H](O)[C@H]2O)c(=O)[nH]1.[Na+].[Na+]" , target or system U2OS.
Result: 1

Ask: Give Growth Rate (U2OS) of the following compound: "O=C1N/C(=N/c2ccccc2F)S/C1=C\c1ccc(C(=O)O)cc1"
Result: 0

Ask: Entry "Cn1cc(CCn2cnc(-c3cnn(C)c3)c2-c2ccc(C#N)cc2)cn1" , system U2OS: what Growth Rate was measured?
Result: 0

The measured values listed here are drawn from ChEMBL document CHEMBL4689842.
